Target: T1, GFP-9S library array, motif 4 ND N98R (synthetic construct, N98R)
T1 chain: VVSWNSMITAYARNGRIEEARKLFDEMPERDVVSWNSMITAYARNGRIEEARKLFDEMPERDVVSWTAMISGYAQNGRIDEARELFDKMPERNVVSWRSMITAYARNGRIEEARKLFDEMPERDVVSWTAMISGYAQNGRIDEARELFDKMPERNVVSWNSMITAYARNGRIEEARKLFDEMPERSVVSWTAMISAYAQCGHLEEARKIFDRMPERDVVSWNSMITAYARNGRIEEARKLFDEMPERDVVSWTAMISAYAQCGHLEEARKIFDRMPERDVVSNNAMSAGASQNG
Assay: high-throughput RNA pulldown from lysate on Ni-NTA beads; HRP: 50 mM Tris pH 8, 150 mM NaCl, 1 mM beta-mercaptoethanol, 50 ug/ml BSA, 3 ug/ml yeast RNA, 0.5% heparin; ITC and FP: Tris pH 8, 200 mM KCl, 5% glycerol; MST: 50 mM Tris pH 8, 200 mM NaCl, 1 mM DTT, BSA, heparin, 0.05% Tween 20
Conditions: tags: N-terminal His-eGFP; label: 5' IRDye 800CW
pKd: −log10 of the molar value.
Catalogue of pKd readings, one per entry.

# binder, pKd
records = [
    ("AUUAUACGUGA (ssRNA) [IR-rpoA-U]", 6.37),
    ("AUUAAACGUGA (ssRNA) [IR-rpoA-A]", 6.19),
]
